The reported numbers originate from PubChem BioAssay AID1159580.

assay: chemical genetic growth profiling, strain panel (AID 1159580);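 note: tested at 20 µM; growth read once vehicle control cultures reached saturation at 30 °C; 1 = growth at the plate median or of vehicle wells; lower values mean less growth of the strain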; conditions: S. cerevisiae deletion strains, growth OD, locus YOL078W, strain AVO1, stronger effect = lower value
The whole screen tested about 5,500 compounds, of which about 2,000 (36%) were called active. Another 18% or so got no clear call; they are omitted. The list shows a part of the results.
PARAMETER: normalized growth

[
  {
    "COMPOUND": "CC(C)CSc1nnc(CSCc2nc(-c3ccc(Cl)cc3)cs2)n1C",
    "READOUT_NUMBER": 0.964
  },
  {
    "COMPOUND": "CC(C)c1ccc(-c2cc(=O)c3ccccc3o2)cc1",
    "READOUT_NUMBER": 0.928
  },
  {
    "COMPOUND": "Cc1cc(C(=O)N(c2ccccc2)C(C)C2CC2)c(Cl)cc1Cl (configuration not stated)",
    "READOUT_NUMBER": 0.98
  },
  {
    "COMPOUND": "CN(C(=O)N(C)c1ccc(Cl)cc1C(=O)c1ccccc1Cl)c1ccc(Cl)cc1C(=O)c1ccccc1Cl",
    "READOUT_NUMBER": 0.845
  },
  {
    "COMPOUND": "COc1ccc(C2CC(c3ccccc3)=Nc3ccccc3S2)cc1OC (configuration not stated)",
    "READOUT_NUMBER": 0.975
  },
  {
    "COMPOUND": "N/C(CSc1ncccc1C(F)(F)F)=N/OC(=O)Nc1cccc(Cl)c1",
    "READOUT_NUMBER": 0.994
  },
  {
    "COMPOUND": "O=C1Nc2ccccc2/C1=N/N=C\\c1ccccc1Cl",
    "READOUT_NUMBER": 0.968
  }
]

* * *

assay: chemical genetic growth profiling, strain panel (AID 1159580);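 note: tested at 20 µM; growth read once vehicle control cultures reached saturation at 30 °C; 1 = growth at the plate median or of vehicle wells; lower values mean less growth of the strain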; conditions: S. cerevisiae deletion strains, growth OD, locus YLR371W, strain rom2, stronger effect = lower value
Out of some 5,500 compounds screened, about 2,000 (36%) were called active. Roughly 18% stayed inconclusive and do not appear here. The list shows a part of the results.
Below is a list of entries, each paired with its recorded normalized growth value.
PARAMETER: normalized growth

[
  {
    "COMPOUND": "CCC1C2CC3C4N(C)c5ccccc5C45CC(C2C5OC(C)=O)N3C1OC(C)=O (stereo unspecified)",
    "PARAMETER": "normalized growth",
    "RESULT": "1.01 (inactive)"
  },
  {
    "COMPOUND": "CCCCCCc1ccc(O)cc1O",
    "PARAMETER": "normalized growth",
    "RESULT": "0.622 (active)"
  },
  {
    "COMPOUND": "NCCc1ccc(O)c(O)c1",
    "PARAMETER": "normalized growth",
    "RESULT": "0.992 (inactive)"
  },
  {
    "COMPOUND": "CC(C)=CCc1c2c(c(O)c3c(=O)c(O)c(-c4ccccc4)oc13)C=CC(C)(C)O2",
    "PARAMETER": "normalized growth",
    "RESULT": "0.623 (active)"
  },
  {
    "COMPOUND": "CCCCC1C(=O)N(c2ccccc2)N(c2ccccc2)C1=O",
    "PARAMETER": "normalized growth",
    "RESULT": "1 (inactive)"
  },
  {
    "COMPOUND": "NCC(=O)CCC(=O)O",
    "PARAMETER": "normalized growth",
    "RESULT": "0.988 (inactive)"
  },
  {
    "COMPOUND": "CC1(C)O[C@@H]2CC3C4C[C@H](F)C5=CC(=O)C=CC5(C)C4C(O)CC3(C)[C@]2(C(=O)CO)O1 (stereo partly specified)",
    "PARAMETER": "normalized growth",
    "RESULT": "0.988 (inactive)"
  },
  {
    "COMPOUND": "CCCCCCCCCc1ccc(O)cc1",
    "PARAMETER": "normalized growth",
    "RESULT": "0.622 (active)"
  },
  {
    "COMPOUND": "COc1cccc(-c2cc(=O)c3cc(OC)ccc3o2)c1",
    "PARAMETER": "normalized growth",
    "RESULT": "1.11 [resistant] (active)"
  },
  {
    "COMPOUND": "Cc1coc2ccccc2c1=O",
    "PARAMETER": "normalized growth",
    "RESULT": "1.03 (inactive)"
  },
  {
    "COMPOUND": "C[C@@H]1CC[C@@]2(OC1)OC1C(O)C3C4CC[C@H]5C[C@H](O[C@@H]6O[C@H](CO)[C@H](O[C@@H]7O[C@H](CO)[C@@H](O)[C@H](O[C@@H]8OC[C@@H](O)[C@H](O)[C@H]8O)[C@H]7O[C@@H]7O[C@H](CO)[C@H](O)[C@H](O[C@@H]8O[C@H](CO)[C@@H](O)[C@H](O)[C@H]8O)[C@H]7O)[C@H](O)[C@H]6O)[C@H](O)C[C@]5(C)C4CC[C@]3(C)C1[C@@H]2C (stereo partly specified)",
    "PARAMETER": "normalized growth",
    "RESULT": "0.0571 (active)"
  },
  {
    "COMPOUND": "CCC/C=C/C=C/[C@@H]1C[C@@H](O)[C@@H](O)C(=O)[C@H]1C=O",
    "PARAMETER": "normalized growth",
    "RESULT": "0.978 (inactive)"
  },
  {
    "COMPOUND": "C=C1C2CC[C@@]3(C)[C@H](c4ccoc4)OC(=O)C[C@]13O[C@H]1CC(=O)C(C)(C)[C@H](C(O)C(=O)OC)[C@@]21C (stereo partly specified)",
    "PARAMETER": "normalized growth",
    "RESULT": "1.02 (inactive)"
  },
  {
    "COMPOUND": "CC(=O)O[C@@H]1CC2C(C)(C)[C@H](O)C[C@H](O)[C@]2(C)C2CC[C@@]3(C)[C@H](c4ccoc4)OC(=O)[C@H]4O[C@]43[C@@]21C (stereo partly specified)",
    "PARAMETER": "normalized growth",
    "RESULT": "0.959 (inactive)"
  },
  {
    "COMPOUND": "NCCc1cccc(O)c1",
    "PARAMETER": "normalized growth",
    "RESULT": "0.991 (inactive)"
  },
  {
    "COMPOUND": "CCN(CC)CCNc1ccc(CO)c2sc3ccccc3c(=O)c12",
    "PARAMETER": "normalized growth",
    "RESULT": "1.01 (inactive)"
  },
  {
    "COMPOUND": "COc1cc([C@@H]2c3cc4c(cc3[C@H](O)[C@H]3COC(=O)[C@@H]23)OCO4)cc(OC)c1OC",
    "PARAMETER": "normalized growth",
    "RESULT": "0.972 (inactive)"
  },
  {
    "COMPOUND": "CC(=O)O[C@H]1C[C@@H](O)C(C)(C)C2C[C@@H](OC(C)=O)[C@]3(C)C(CC[C@@]4(C)[C@H](c5ccoc5)OC(=O)C5OC543)[C@]21C (stereo partly specified)",
    "PARAMETER": "normalized growth",
    "RESULT": "0.988 (inactive)"
  },
  {
    "COMPOUND": "COc1cccc2c1cc([N+](=O)[O-])c1c(C(=O)O)cc3c(c12)OCO3",
    "PARAMETER": "normalized growth",
    "RESULT": "1.03 (inactive)"
  },
  {
    "COMPOUND": "C#CCOS(=O)OC1CCCCC1Oc1ccc(C(C)(C)C)cc1 (stereo unspecified)",
    "PARAMETER": "normalized growth",
    "RESULT": "0.983 (inactive)"
  },
  {
    "COMPOUND": "COc1ccc(-c2coc3cc(O)cc(O)c3c2=O)cc1",
    "PARAMETER": "normalized growth",
    "RESULT": "0.493 (active)"
  }
]

* * *

assay: chemical genetic growth profiling, strain panel (AID 1159580);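 note: tested at 20 µM; growth read once vehicle control cultures reached saturation at 30 °C; 1 = growth at the plate median or of vehicle wells; lower values mean less growth of the strain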; details: S. cerevisiae deletion strains, growth OD, locus YNL322C, strain KRE1 (second series), stronger effect = lower value
Hit rate of the full screen: of about 5,500 compounds, about 2,000 (36%) were called active. Roughly 18% stayed inconclusive and do not appear here. Some of the results follow.
PARAMETER: normalized growth

[
  {
    "MOLECULE": "CN(C)CCC=C1c2ccccc2C=Cc2ccccc21",
    "RESULT": "0.992 (inactive)"
  },
  {
    "MOLECULE": "CC[N+]1(C)CCCC(OC(=O)C(O)(c2ccccc2)c2ccccc2)C1 (centres undefined)",
    "RESULT": "1.01 (inactive)"
  },
  {
    "MOLECULE": "CN(C)CCC=C1c2ccccc2CCc2ccccc21",
    "RESULT": "0.997 (inactive)"
  },
  {
    "MOLECULE": "FC(F)(F)C(Cl)Br (centres undefined)",
    "RESULT": "1.02 (inactive)"
  },
  {
    "MOLECULE": "CC(=O)Oc1cc(-c2coc3cc(OC(C)=O)c(OC(C)=O)c(OC(C)=O)c3c2=O)cc(OC(C)=O)c1OC(C)=O",
    "RESULT": "0.972 (inactive)"
  },
  {
    "MOLECULE": "O=C1CCc2cc(OCCCCc3nnnn3C3CCCCC3)ccc2N1",
    "RESULT": "0.988 (inactive)"
  },
  {
    "MOLECULE": "CC(C)c1ccc2c(c1O)CC[C@H]1C3=C(CC[C@]21C)C(=O)OC3",
    "RESULT": "0.973 (inactive)"
  },
  {
    "MOLECULE": "CC(=O)OCC(=O)[C@H]1CCC2C3CC=C4C[C@@H](O)CC[C@]4(C)C3CC[C@@]21C (some centres undefined)",
    "RESULT": "1.02 (inactive)"
  },
  {
    "MOLECULE": "C=C1C(N)CC2CC1C2(C)C (centres undefined)",
    "RESULT": "0.983 (inactive)"
  },
  {
    "MOLECULE": "O=c1c(-c2cc(O)c(O)c(O)c2)coc2cc(O)c(O)c(O)c12",
    "RESULT": "1.01 (inactive)"
  },
  {
    "MOLECULE": "NS(=O)(=O)c1cc2c(cc1C(F)(F)F)NCNS2(=O)=O",
    "RESULT": "0.99 (inactive)"
  },
  {
    "MOLECULE": "CC(=O)CC(c1ccccc1)c1c(O)c2ccccc2oc1=O (centres undefined)",
    "RESULT": "0.989 (inactive)"
  },
  {
    "MOLECULE": "N[C@H](CO)Cc1ccccc1",
    "RESULT": "1.02 (inactive)"
  },
  {
    "MOLECULE": "CC1=NCCc2c1[nH]c1cc(O)ccc21",
    "RESULT": "0.981 (inactive)"
  },
  {
    "MOLECULE": "CCN1CCN(c2cc3c(cc2F)c(=O)c(C(=O)O)cn3C2CC2)CC1",
    "RESULT": "1 (inactive)"
  },
  {
    "MOLECULE": "CN(C)CC/C=C1/c2ccccc2COc2ccccc21",
    "RESULT": "1.02 (inactive)"
  },
  {
    "MOLECULE": "CCC(CCC(C)[C@H]1CCC2C3CC=C4C[C@@H](O)CC[C@]4(C)C3CC[C@@]21C)C(C)C (some centres undefined)",
    "RESULT": "1.01 (inactive)"
  },
  {
    "MOLECULE": "C=CCc1ccccc1OCC(O)CNC(C)C (centres undefined)",
    "RESULT": "0.991 (inactive)"
  },
  {
    "MOLECULE": "O=C1CN2Cc3c(ccc(Cl)c3Cl)N=C2N1",
    "RESULT": "0.985 (inactive)"
  },
  {
    "MOLECULE": "CCC(/C=C/[C@@H](C)[C@H]1CCC2C3CC=C4C[C@@H](O)CC[C@]4(C)C3CC[C@@]21C)C(C)C (some centres undefined)",
    "RESULT": "0.989 (inactive)"
  },
  {
    "MOLECULE": "CCCCC1C(=O)N(c2ccccc2)N(c2ccccc2)C1=O",
    "RESULT": "0.982 (inactive)"
  },
  {
    "MOLECULE": "CC(=O)O[C@@H]1CC2C(C)(C)C(=O)CC[C@]2(C)C2CC[C@@]3(C)[C@H](c4ccoc4)OC(=O)C4OC43[C@@]21C (some centres undefined)",
    "RESULT": "0.985 (inactive)"
  },
  {
    "MOLECULE": "CCN(CC)CCNc1ccc(CO)c2sc3ccccc3c(=O)c12",
    "RESULT": "1.01 (inactive)"
  },
  {
    "MOLECULE": "Cc1cc2cc3c(C)cc(=O)oc3c(C)c2o1",
    "RESULT": "1 (inactive)"
  }
]
